Reported AC50 values follow for various compounds
Target: Adenosine receptor A3 (Homo sapiens); further: assay procedure not described here
Sequence (P0DMS8 whole entry): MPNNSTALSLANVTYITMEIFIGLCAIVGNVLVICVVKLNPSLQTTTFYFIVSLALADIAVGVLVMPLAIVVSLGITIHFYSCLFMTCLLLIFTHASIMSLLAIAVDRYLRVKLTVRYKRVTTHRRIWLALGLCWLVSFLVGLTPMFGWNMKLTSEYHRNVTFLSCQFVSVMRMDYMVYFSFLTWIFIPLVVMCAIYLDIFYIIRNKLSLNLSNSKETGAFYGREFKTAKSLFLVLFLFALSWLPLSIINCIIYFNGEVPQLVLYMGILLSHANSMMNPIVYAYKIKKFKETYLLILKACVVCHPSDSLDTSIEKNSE

Compound	AC50
O=C(O)c1cc(O)c2c3nc4ccccc4oc-3cc(=O)c2n1 [PIRENOXINE]	> 30 µM
CCC(C)(Oc1ccc(C2(c3ccc(OC(C)(CC)C(=O)O)cc3)CCCCC2)cc1)C(=O)O (stereo not drawn) [CLINOFIBRATE]	20 µM
CS(=O)(=O)OCCCCOS(C)(=O)=O [BUSULFAN]	> 30 µM
CC(C)OC(=O)C(C(=O)OC(C)C)=C1SC=CS1 [MALOTILATE]	> 30 µM
NC(=O)CCC/N=C(\c1ccc(Cl)cc1)c1cc(F)ccc1O [PROGABIDE]	> 10 µM
O=C(CCCN1CCC2(CC1)C(=O)NCN2c1ccccc1)c1ccc(F)cc1 [SPIPERONE]	> 30 µM
CN1C[C@H](C(=O)N[C@]2(C)O[C@@]3(O)[C@@H]4CCCN4C(=O)[C@H](Cc4ccccc4)N3C2=O)C[C@@H]2c3cccc4[nH]cc(c34)C[C@H]21 [DIHYDROERGOTAMINE]	> 30 µM
N#C[C@@H]1CCCN1C(=O)CNC12CC3CC(CC(O)(C3)C1)C2 [VILDAGLIPTIN]	> 30 µM

====

Please consider the recorded AC50 for D(1A) dopamine receptor (Homo sapiens, UniProt P21728) in what follows.

Item smiles	AC50
Oc1c(I)cc(Cl)c2cccnc12	> 30 µM
CN(C)c1cc(CNCC(C)(C)C)c(O)c2c1C[C@H]1C[C@H]3[C@H](N(C)C)C(O)=C(C(N)=O)C(=O)[C@@]3(O)C(O)=C1C2=O	> 30 µM
CCC(=O)O[C@@H]1CC(=O)O[C@H](C)C/C=C/C=C/[C@H](OC(C)=O)[C@H](C)C[C@H](CC=O)[C@H](O[C@@H]2O[C@H](C)[C@@H](O[C@H]3C[C@@](C)(OC(C)=O)[C@@H](OC(=O)CC)[C@H](C)O3)[C@H](N(C)C)[C@H]2O)[C@H]1OC	> 30 µM
O=C(Nc1nc(-c2cc(Cl)cs2)c(N2CCN(C3CCCCC3)CC2)s1)c1cnc(N2CCC(C(=O)O)CC2)c(Cl)c1	> 30 µM
C[n+]1ccccc1/C=N/O	> 30 µM
CCC(=O)O[C@@H](O[P@](=O)(CCCCc1ccccc1)CC(=O)N1C[C@H](C2CCCCC2)C[C@H]1C(=O)O)C(C)C	21.6 µM
CN1CCN(CCCN2c3ccccc3Sc3ccc(S(=O)(=O)N(C)C)cc32)CC1	> 30 µM
O=C(Nc1cccc2c(=O)cc(-c3nnn[nH]3)oc12)c1ccc(OCCCCc2ccccc2)cc1	2.88 µM
C1CNCCN1	> 30 µM
CO[C@@]1(NC(=O)CSCC#N)C(=O)N2C(C(=O)O)=C(CSc3nnnn3C)CS[C@@H]21	> 30 µM
CNC(=O)c1cc(Oc2ccc(NC(=O)Nc3ccc(Cl)c(C(F)(F)F)c3)c(F)c2)ccn1	4.15 µM
CCCCCCCC(=O)N[C@H](CN1CCCC1)[C@H](O)c1ccc2c(c1)OCCO2	> 30 µM

// data source = ChEMBL document CHEMBL5291721
